tested on: rodent lifetime carcinogenesis bioassay, tumor incidence TD50; assay: carcinogenic potency in animals, long-term in vivo studies, CPDB compilation (AID 1745844); details: mouse; strain B6C3F1; females; in feed; site: all sites; lesion: hemangiosarcoma; dosed 78 weeks; study length 91 weeks

{"columns": ["STRUCTURE_SMILES_STRING", "TD50"],
 "data": [
  ["Cc1ccc(Cl)cc1N", "373 mg/kg/day"]
]}

----------
tested on: rodent lifetime carcinogenesis bioassay, tumor incidence TD50; assay: carcinogenic potency in animals, long-term in vivo studies, CPDB compilation (AID 1745844); settings: rat; strain Wistar-random; males; inhaled; site: nasal mucosa; lesion: adenocarcinoma; dosed 50 weeks; study length 105 weeks

{"columns": ["STRUCTURE_SMILES_STRING", "ASSAYED_TARGET", "TD50"],
 "data": [
  ["CC=O", "rodent lifetime carcinogenesis bioassay, tumor incidence TD50", "190 mg/kg/day"]
]}

----------
system: rodent lifetime carcinogenesis bioassay, tumor incidence TD50; assay: carcinogenic potency in animals, long-term in vivo studies, CPDB compilation (AID 1745844); conditions: mouse; strain AP Alderly Park; males; several routes; site: testis; lesion: interstitial-cell adenoma; dosed 65 weeks; study length 65 weeks

{"columns": ["STRUCTURE_SMILES_STRING", "ASSAYED_TARGET", "TD50"],
 "data": [
  ["CC/C(=C(\\c1ccccc1)c1ccc(OCCN(C)C)cc1)c1ccccc1", "rodent lifetime carcinogenesis bioassay, tumor incidence TD50", "8.18 mg/kg/day"]
]}

----------
test system: rodent lifetime carcinogenesis bioassay, tumor incidence TD50; assay: carcinogenic potency in animals, long-term in vivo studies, CPDB compilation (AID 1745844); conditions: rat; strain Osborne-Mendel; females; by gavage; site: any site (literature study); lesion: several types; types named in the paper; dosed 78 weeks; study length 110 weeks
Calls of active or inactive are those of the source. No rule for the calls is given here.

{"columns": ["STRUCTURE_SMILES_STRING", "ASSAYED_TARGET", "TD50"],
 "data": [
  ["C=CCCl", "rodent lifetime carcinogenesis bioassay, tumor incidence TD50", "35.2 mg/kg/day"],
  ["ClC=C(Cl)Cl", "rodent lifetime carcinogenesis bioassay, tumor incidence TD50", "5620 mg/kg/day (inactive)"],
  ["ClC(Cl)=C(Cl)Cl", "rodent lifetime carcinogenesis bioassay, tumor incidence TD50", "1710 mg/kg/day"],
  ["ClC(Cl)Cl", "rodent lifetime carcinogenesis bioassay, tumor incidence TD50", "68.2 mg/kg/day"]
]}

----------
tested on: rodent lifetime carcinogenesis bioassay, tumor incidence TD50; experiment: carcinogenic potency in animals, long-term in vivo studies, CPDB compilation (AID 1745844); conditions: rat; strain MRC-Wistar; males; in drinking water; site: any site (literature study); lesion: several types; types named in the paper; dosed 78 weeks; study length 110 weeks
OBSERVATION_TYPE: TD50 (mg/kg/day)

{"columns": ["STRUCTURE_SMILES_STRING", "SCALE_UNIT", "EXPERIMENTAL_VALUE"],
 "data": [
  ["CC(C)=NO", "mg/kg/day", 12.8]
]}

----------
system: rodent lifetime carcinogenesis bioassay, tumor incidence TD50; experiment: carcinogenic potency in animals, long-term in vivo studies, CPDB compilation (AID 1745844); conditions: mouse; strain Swiss; females; inhaled; site: any site (literature study); lesion: several types; types named in the paper; dosed 78 weeks; study length 104 weeks
Activity calls are given as the source filed them. How the calls were made is not given here.
Listed below: TD50 values for each entry.

{"columns": ["STRUCTURE_SMILES_STRING", "TD50"],
 "data": [
  ["C=CC", "10100 mg/kg/day (inactive)"],
  ["FC(F)(Cl)Cl", "59000 mg/kg/day (inactive)"]
]}

Origin of values: PubChem BioAssay AID1745844
